B1: Myocardin, residues 363 to 406; numbered along this chain, Q8IZQ8 (parent)
chain: KPGPLPPNLDDLKVSELRQQLRIRGLPVSGTKTALMDRLRPFQD

- Variants of: B1
- PROTOCOL DESCRIPTION: abundance fitness (aPCA) (normalised: wild type 0, dead -1); higher = more abundant; growth selection in yeast, the domain comes from the species named
- TEST SETTINGS: Homo sapiens
MEASURED QUANTITY: abundance fitness

Solved cases below.
G25K
0.068
Q20K
-0.314

Give me abundance fitness for each of these variants, listed below.
1. G3L
2. D11M
3. I23A
4. L26V
5. T33D
6. L17D
7. L9W
8. S15H

1. -0.025
2. 0.063
3. 0.091
4. -0.732
5. 0.138
6. -0.86
7. -0.615
8. 0.023
